Catalogue of molecules with associated EC50
tested on: SK-OV-3; experiment: Antiproliferative activity against human SKOV3 cells after 48 hrs; type: functional, cell-based; conditions: SK-OV-3, 48 h
Hey, just the number and the unit after it is fine.

[
  {
    "Molecule": "CN(C)CCn1nc2c3c(c(NCCC4CCCN4C)ccc31)C(=O)c1ccncc1-2 (stereo not given)",
    "Result": "360 nM"
  },
  {
    "Molecule": "CN(C)CCn1nc2c3c(c(NCC/C=C\\CCOS(C)(=O)=O)ccc31)C(=O)c1ccncc1-2",
    "Result": "5380 nM"
  },
  {
    "Molecule": "CN(C)CCn1nc2c3c(c(NCCc4cccs4)ccc31)C(=O)c1ccncc1-2",
    "Result": "3220 nM"
  },
  {
    "Molecule": "CN(C)CCn1nc2c3c(c(NCCCCCCN4CC4)ccc31)C(=O)c1ccncc1-2",
    "Result": "770 nM"
  },
  {
    "Molecule": "CN(C)CCn1nc2c3c(c(N(C)C)ccc31)C(=O)c1ccncc1-2",
    "Result": "2080 nM"
  },
  {
    "Molecule": "CN(C)CCn1nc2c3c(c(NCCc4c[nH]cn4)ccc31)C(=O)c1ccncc1-2",
    "Result": "1650 nM"
  }
]

As a next step, examine the molecule that follows.
**Q:** Dear colleague, I am looking for the recorded EC50 of the following molecule: `CN(C)CCn1nc2c3c(c(NCCc4c[nH]c5ccccc45)ccc31)C(=O)c1ccncc1-2`
**A:** 1520 nM

FYI, the data here is from ChEMBL document CHEMBL2331492.
